Target: Voltage-dependent T-type calcium channel subunit alpha-1H (Homo sapiens)
Assay: Cav3.2 calcium influx blockers – cell-based, Fluo-4 calcium fluorescence, FDSS, MLSMR library, primary screen (AID 449739)
Conditions: Cav3.2-expressing cells, at 10 µM, active compounds read low
The campaign covered roughly 100,000 compounds. About 4,200 (4.2%) were called active. The sample holds actives, similar compounds and a random draw of the others, so the mix is not that of the screen.
Readout label: B-score

Entry O=C(NNS(=O)(=O)c1ccc(Cl)cc1)C1CCN(Cc2ccccc2)CC1 — recorded B-score = 0.455 (inactive)

----------
Target: Voltage-dependent T-type calcium channel subunit alpha-1H (Homo sapiens) (UniProt O95180)
Sequence (O95180 whole entry, looked up): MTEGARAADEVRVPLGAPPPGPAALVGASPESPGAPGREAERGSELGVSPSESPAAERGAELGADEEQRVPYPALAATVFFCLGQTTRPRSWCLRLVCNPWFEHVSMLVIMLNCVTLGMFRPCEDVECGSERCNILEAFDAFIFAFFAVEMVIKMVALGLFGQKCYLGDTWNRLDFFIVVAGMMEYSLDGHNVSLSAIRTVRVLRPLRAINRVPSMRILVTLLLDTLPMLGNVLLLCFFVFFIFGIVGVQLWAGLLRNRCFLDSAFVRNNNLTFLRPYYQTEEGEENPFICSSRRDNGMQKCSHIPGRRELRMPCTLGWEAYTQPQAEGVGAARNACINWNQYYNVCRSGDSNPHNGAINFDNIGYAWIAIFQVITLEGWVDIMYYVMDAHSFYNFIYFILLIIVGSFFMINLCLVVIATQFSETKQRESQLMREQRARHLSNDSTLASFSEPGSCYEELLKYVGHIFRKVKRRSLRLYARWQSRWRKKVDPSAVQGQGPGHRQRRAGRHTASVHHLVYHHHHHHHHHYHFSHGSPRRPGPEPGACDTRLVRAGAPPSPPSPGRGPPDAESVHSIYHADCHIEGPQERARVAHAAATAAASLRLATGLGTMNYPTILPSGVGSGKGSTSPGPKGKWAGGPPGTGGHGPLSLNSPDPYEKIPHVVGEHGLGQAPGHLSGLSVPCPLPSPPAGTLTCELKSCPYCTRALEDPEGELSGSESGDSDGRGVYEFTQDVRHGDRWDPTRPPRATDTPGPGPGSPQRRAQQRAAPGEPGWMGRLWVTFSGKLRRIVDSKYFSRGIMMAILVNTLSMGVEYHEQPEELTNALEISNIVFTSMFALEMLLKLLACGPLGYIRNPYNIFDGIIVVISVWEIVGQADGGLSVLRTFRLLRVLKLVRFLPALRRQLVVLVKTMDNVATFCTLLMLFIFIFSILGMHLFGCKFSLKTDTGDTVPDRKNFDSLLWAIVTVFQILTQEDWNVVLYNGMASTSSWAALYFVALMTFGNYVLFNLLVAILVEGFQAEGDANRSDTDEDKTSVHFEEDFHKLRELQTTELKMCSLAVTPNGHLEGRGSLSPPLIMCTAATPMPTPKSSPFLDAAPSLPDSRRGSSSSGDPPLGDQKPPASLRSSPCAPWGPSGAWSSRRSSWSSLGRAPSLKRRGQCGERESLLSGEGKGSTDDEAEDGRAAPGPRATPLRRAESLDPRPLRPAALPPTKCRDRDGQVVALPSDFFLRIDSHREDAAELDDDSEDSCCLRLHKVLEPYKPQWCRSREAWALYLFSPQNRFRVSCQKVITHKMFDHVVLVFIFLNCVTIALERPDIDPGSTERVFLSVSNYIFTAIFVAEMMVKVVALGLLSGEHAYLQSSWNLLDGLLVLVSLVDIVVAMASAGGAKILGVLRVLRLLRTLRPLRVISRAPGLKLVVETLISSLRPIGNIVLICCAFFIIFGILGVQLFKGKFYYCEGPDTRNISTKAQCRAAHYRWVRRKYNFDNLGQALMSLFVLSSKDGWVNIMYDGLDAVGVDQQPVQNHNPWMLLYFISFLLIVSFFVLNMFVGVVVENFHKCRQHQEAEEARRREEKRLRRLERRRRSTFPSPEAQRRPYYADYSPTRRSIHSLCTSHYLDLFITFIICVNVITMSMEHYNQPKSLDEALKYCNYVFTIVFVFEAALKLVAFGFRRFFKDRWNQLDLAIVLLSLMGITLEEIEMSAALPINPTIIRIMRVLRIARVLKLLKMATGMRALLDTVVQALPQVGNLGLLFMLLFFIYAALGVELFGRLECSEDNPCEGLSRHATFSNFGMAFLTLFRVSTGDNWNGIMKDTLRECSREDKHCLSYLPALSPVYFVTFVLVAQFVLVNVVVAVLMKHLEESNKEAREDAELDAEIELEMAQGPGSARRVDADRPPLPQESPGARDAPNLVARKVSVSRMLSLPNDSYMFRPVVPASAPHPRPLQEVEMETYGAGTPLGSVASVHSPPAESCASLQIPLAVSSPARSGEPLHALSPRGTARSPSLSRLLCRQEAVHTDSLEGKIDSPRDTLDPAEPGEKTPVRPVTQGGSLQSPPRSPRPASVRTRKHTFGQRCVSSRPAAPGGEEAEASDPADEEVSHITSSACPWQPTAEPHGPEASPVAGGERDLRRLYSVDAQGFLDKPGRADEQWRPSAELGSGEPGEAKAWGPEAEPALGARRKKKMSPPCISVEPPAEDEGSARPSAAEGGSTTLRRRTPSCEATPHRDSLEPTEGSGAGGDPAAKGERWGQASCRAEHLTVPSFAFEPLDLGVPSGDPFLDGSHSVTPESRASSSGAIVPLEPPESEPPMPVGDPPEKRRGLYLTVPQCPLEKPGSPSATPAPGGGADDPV
Experiment: Cav3.2 calcium influx blockers – cell-based, Fluo-4 calcium fluorescence, FDSS, MLSMR library, primary screen (AID 449739)
Details: Cav3.2-expressing cells, at 10 µM, active compounds read low
Out of some 100,000 compounds screened, about 4,200 (4.2%) were called active. The sample as a whole holds a higher share of actives than the screen did.
B-score strictly under 0.09 means satisfied; at 0.09 or over means not satisfied.

Examples from the recorded data:
>>> print(df.to_string())
                                   compound  class_assignment
0  CC(N=Cc1nc(-c2ccccc2)oc1O)c1ccccc1 (stereo not given)         satisfied
1  CCO[C@H]1OC(C(=O)N2CCOCC2)=C[C@@H](c2ccc3c(c2)OCO3)[C@@H]1CCCO         satisfied
2  Brc1ccc(C2=CC(c3ccco3)n3ncnc3N2)cc1 (stereo not given)         satisfied
3  CN(NC(=O)c1ccccc1)c1nc2ccccc2nc1C(F)(F)F         satisfied

Ask: For this compound, is B-score lower than 0.09? COc1ccc2cc1Oc1ccc(cc1)C[C@H]1c3cc(c(OC)cc3CCN1C)Oc1c(O)c(OC)cc3c1[C@H](C2)N(C)CC3
Result: not satisfied

Ask: For this compound, is B-score lower than 0.09? CN1CCN(c2nc3c(c(=O)[nH]c(=O)n3C)n2Cc2cccc3ccccc23)CC1
Result: not satisfied

Ask: For this compound, is B-score lower than 0.09? COC(C[C@H](O)CC(=O)COCc1ccccc1)OC
Result: not satisfied

Ask: For this compound, is B-score lower than 0.09? Cc1cn(C)c(=O)n(C)c1=O
Result: not satisfied

Ask: For this compound, is B-score lower than 0.09? CC(NC(=O)c1cc(-c2ccccc2)on1)c1ccccc1 (stereo not given)
Result: not satisfied

Ask: For this compound, is B-score lower than 0.09? C/C(=N/NC(=O)c1ccc(NC(=O)c2ccc(F)cc2)cc1)c1ccccc1
Result: not satisfied

Ask: For this compound, is B-score lower than 0.09? CCOc1ccc(C2=CC(c3ccccc3)n3ncnc3N2)cc1 (stereo not given)
Result: satisfied

Ask: For this compound, is B-score lower than 0.09? COc1ccc(C(=O)NN(C)c2nc(-c3ccccc3)cc(C)c2S(C)(=O)=O)cc1
Result: not satisfied

----------
Target: Voltage-dependent T-type calcium channel subunit alpha-1H (Homo sapiens) (UniProt O95180)
Assay: Cav3.2 calcium influx blockers – cell-based, Fluo-4 calcium fluorescence, FDSS, MLSMR library, primary screen (AID 449739)
Conditions: Cav3.2-expressing cells, at 10 µM
Hit rate of the full screen: of about 100,000 compounds, about 4,200 (4.2%) were called active.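 The calls were made as follows: active = single-dose well whose peak fluorescence ratio is a statistical outlier from its plate by either plate-standardised score or position-corrected B-score; inactive = the rest.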 This excerpt belongs to a sample that is enriched for actives.
The reply should be one of these categories: 1 (active), 0 (inactive)

Examples from the recorded data:
In [3]: df
Out[3]:
                                   molecule                           target_of_assay  class_assignment
0           Cn1cnc([N+](=O)[O-])c1Sc1ccccc1  Voltage-dependent T-type calcium channel subunit alpha-1H (Homo sapiens) (UniProt O95180)                 0
1  NC(=O)CC(NC(=O)Cc1cccc2ccccc12)c1ccc(NCc2cc(F)ccc2F)c([N+](=O)[O-])c1 (configuration not stated)  Voltage-dependent T-type calcium channel subunit alpha-1H (Homo sapiens) (UniProt O95180)                 0
2  CCCCCCn1c(CN2CCCC(C)C2)nc2c1c(=O)n(C)c(=O)n2C (configuration not stated)  Voltage-dependent T-type calcium channel subunit alpha-1H (Homo sapiens) (UniProt O95180)                 1
3  O=C(CN1CCN(C2CCCCC2)CC1)Nc1ccccc1N1CCCCC1  Voltage-dependent T-type calcium channel subunit alpha-1H (Homo sapiens) (UniProt O95180)                 0
4  CCOc1ccc(NC(=O)CC2NCCNC2=O)cc1 (configuration not stated)  Voltage-dependent T-type calcium channel subunit alpha-1H (Homo sapiens) (UniProt O95180)                 0
5          CCOC(=O)Cc1csc(NC(=O)C(C)(C)C)n1  Voltage-dependent T-type calcium channel subunit alpha-1H (Homo sapiens) (UniProt O95180)                 0

Ask: Hi, do you know how Cc1nn(C)c(Oc2ccccc2)c1CCNS(=O)(=O)c1ccc(F)cc1 came out in this test?
Result: 0

Ask: Hi, do you know how COc1cc(/C=N/O)cc(Br)c1OS(=O)(=O)c1ccc(C)cc1 came out in this test?
Result: 0

Ask: Hi, do you know how CCCCc1nnc(NC(=O)CSc2nc(C)cc(=O)[nH]2)s1 came out in this test?
Result: 0

Ask: Hi, do you know how C=C(C)Cn1c(C)cc(C)c(S(=O)(=O)c2ccccc2C)c1=O came out in this test?
Result: 1

Ask: Hi, do you know how Cc1cccc(OCc2nnc(SCn3nnc4ccccc4c3=O)o2)c1 came out in this test?
Result: 1

Ask: Hi, do you know how CCN1CCN(Cc2nc3c(c(=O)n(C)c(=O)n3C)n2CC(=O)c2ccccc2)CC1 came out in this test?
Result: 0

Ask: Hi, do you know how O=C(NC1CCCCC1)N1CCc2[nH]c3ccccc3c2C1 came out in this test?
Result: 0

Ask: Hi, do you know how COc1ccc(C#Cc2c(-c3ccc(OC)cc3)oc3ccc(-c4ccc5c(c4)OCO5)cc23)cc1 came out in this test?
Result: 0

Ask: Hi, do you know how CCCC(=O)N1CCc2[nH]c3ccccc3c2C1 came out in this test?
Result: 0

Ask: Hi, do you know how COC(=O)C1=C(C)N(C)C(C)=C(C(=O)OC)C1c1cccc(Br)c1 came out in this test?
Result: 1

Ask: Hi, do you know how COC(=O)COc1cccc2c(=O)n(CC(=O)NCCc3ccc(OC)c(OC)c3)ccc12 came out in this test?
Result: 0

Ask: Hi, do you know how Cc1ccccc1NC(=O)C(C)c1ccc(-c2ccccc2)c(F)c1 (configuration not stated) came out in this test?
Result: 0

Ask: Hi, do you know how CCCOc1ccc(NC(=O)C2CCCNC2=O)cc1 (configuration not stated) came out in this test?
Result: 0

Ask: Hi, do you know how Cc1cccc(OCc2nnc(SCc3nc4cc(C(F)(F)F)ccc4c(=O)[nH]3)o2)c1 came out in this test?
Result: 0

Ask: Hi, do you know how C/C=C\C=C\C(=O)N1CC2(CC(c3cccc(NC(=O)/C(C)=C\C)c3)=NO2)C[C@H]1C(N)=O (some centres not stated) came out in this test?
Result: 0

Ask: Hi, do you know how Cc1cc(C)cc(OCc2nnc(SCC(=O)Nc3ccccc3)o2)c1 came out in this test?
Result: 0

----------
Target: Voltage-dependent T-type calcium channel subunit alpha-1H (Homo sapiens)
Test: Cav3.2 calcium influx blockers – cell-based, Fluo-4 calcium fluorescence, FDSS, MLSMR library, primary screen (AID 449739)
Settings: Cav3.2-expressing cells, at 10 µM, active compounds read low
Hit rate of the full screen: of about 100,000 compounds, about 4,200 (4.2%) were called active. For the sample, actives were picked, then their nearest neighbours and some compounds at random.
Readout label: B-score
Form: value (number only, do not type unit).

                                   molecule   value
0  Cn1c2ccccc2c2c(C(=O)N3CCN(c4ccc(F)cc4)CC3)cn(C3CCCC3)c(=O)c21   -5.04
1  Cc1nc(-c2ccc(Cl)cc2)sc1C1(C)CC(c2ccccc2F)=NO1 (stereo not given)    1.15
2   CC(=O)c1cnc(SCCN2C(=O)c3ccccc3C2=O)nc1C  -0.173
3    O=C(c1cccc2ccccc12)N1CCN(c2ccccc2F)CC1   -2.56
4  O=C(O)C1CC=CCC1C(=O)Nc1ccccc1C(=O)N1CCN(c2ccccc2)CC1 (stereo not given)  0.0959
5  CC1C/C(=N/NC(=O)c2cccs2)CC(C)(C)C1 (stereo not given)   0.092
6  Cc1nn(-c2ccccc2)c(C)c1C(=O)OCC(=O)NC(=O)NC1CCCCC1   -5.85
7  COc1ccc(NS(=O)(=O)c2ccc(NC(=S)NC(=O)CC(C)C)cc2)cc1   -2.74

Entry Cn1c(C(=O)N2CCC(C(N)=O)CC2)cc2c(=O)n(C)c3ccccc3c21 — recorded B-score = 0.0764

Entry COc1cccc(/C=N/NC(=O)C(=O)N2CCCC2)c1 — recorded B-score = 1.2
